Test system: Stellaria
Test: Post-emergence test/greenhouse, Stellaria
Type: in vivo
Conditions: greenhouse, 30 g of ai./ha, after three weeks
Below, each of the molecules is paired with its reported degree of damage, Stellaria value.

{"query-smiles": "COC(=O)c1scc(C)c1S(=O)(=O)NC(=O)n1nc(OC)n(C)c1=O", "tgt": "Stellaria", "degree of damage, Stellaria, %": 95}
{"query-smiles": "COC(=O)c1cccc(C)c1S(=O)(=O)NC(=O)n1nc(SCCF)n(C2CC2)c1=O", "tgt": "Stellaria", "degree of damage, Stellaria, %": 90}
{"query-smiles": "CCSc1nn(C(=O)NS(=O)(=O)c2c(C)cccc2C(=O)OC)c(=O)n1C", "tgt": "Stellaria", "degree of damage, Stellaria, %": 95}
{"query-smiles": "CCc1nn(C(=O)NS(=O)(=O)c2c(C)csc2C(=O)OC)c(=O)n1C", "tgt": "Stellaria", "degree of damage, Stellaria, %": 90}

* * *

Below, each of the compounds is paired with its reported degree of damage, Stellaria value.
System: Stellaria
Test: Post-emergence test/greenhouse, Stellaria
Type: in vivo
Settings: greenhouse, 60 g of ai./ha, after three weeks
value-type: degree of damage, Stellaria (%)

{"query-smiles": "CCOC(=O)c1scc(C)c1S(=O)(=O)NC(=O)n1nc(OCC)n(C)c1=O", "recorded-number": 100}
{"query-smiles": "CCOc1nn(C(=O)NS(=O)(=O)c2c(C)csc2C(=O)OC)c(=O)n1C1CC1", "recorded-number": 100}
{"query-smiles": "COC(=O)c1cccc(C)c1S(=O)(=O)NC(=O)n1nc(OC)n(C2CC2)c1=O", "recorded-number": 95}
{"query-smiles": "CCCOc1nn(C(=O)NS(=O)(=O)c2c(C)cccc2C(=O)OC)c(=O)n1C1CC1", "recorded-number": 95}
{"query-smiles": "COC(=O)c1cccc(C)c1S(=O)(=O)NC(=O)n1nc(OC(C)C)n(C2CC2)c1=O", "recorded-number": 95}
{"query-smiles": "COCc1nn(C(=O)NS(=O)(=O)c2c(C)csc2C(=O)OC)c(=O)n1C1CC1", "recorded-number": 100}
{"query-smiles": "CCSc1nn(C(=O)NS(=O)(=O)c2c(C)cccc2C(=O)OC)c(=O)n1C1CC1", "recorded-number": 100}
{"query-smiles": "CCOC(=O)c1cccc(C)c1S(=O)(=O)NC(=O)n1nc(SC)n(C)c1=O", "recorded-number": 100}
{"query-smiles": "COCc1nn(C(=O)NS(=O)(=O)c2c(C)csc2C(=O)OC)c(=O)n1C", "recorded-number": 90}
{"query-smiles": "CCOC(=O)c1scc(C)c1S(=O)(=O)NC(=O)n1nc(OCC)n(C2CC2)c1=O", "recorded-number": 100}
{"query-smiles": "CCOn1c(CC)nn(C(=O)NS(=O)(=O)c2c(C)csc2C(=O)OC)c1=O", "recorded-number": 95}
{"query-smiles": "COC(=O)c1cccc(C)c1S(=O)(=O)NC(=O)n1nc(OC)n(C)c1=O", "recorded-number": 90}
{"query-smiles": "CCOc1nn(C(=O)NS(=O)(=O)c2c(C)cccc2C(=O)OC)c(=O)n1C", "recorded-number": 95}

* * *

Test system: Sorghum
Test: Pre-emergence test/Greenhouse, Sorghum
Type: in vivo
Settings: 125 g of ai./ha, after three weeks
value-type: degree of damage to the plants (% damage vs untreated control), Sorghum (%)

{"query-smiles": "CCOC(=O)c1scc(C)c1S(=O)(=O)NC(=O)n1nc(CC)n(C)c1=O", "recorded-number": 100}
{"query-smiles": "CCCOc1nn(C(=O)[N-]S(=O)(=O)c2c(C)cccc2C(=O)OC)c(=O)n1C.[Na+]", "recorded-number": 95}
{"query-smiles": "CCOC(=O)c1scc(C)c1S(=O)(=O)NC(=O)n1nc(OCC(F)(F)F)n(C)c1=O", "recorded-number": 60}
{"query-smiles": "COC(=O)c1scc(C)c1S(=O)(=O)NC(=O)c1noc(C)n1", "recorded-number": 70}
{"query-smiles": "COC(=O)c1scc(C)c1S(=O)(=O)NC(=O)n1nc(SC)n(C)c1=O", "recorded-number": 95}
{"query-smiles": "CCCc1nn(C(=O)NS(=O)(=O)c2c(C)csc2C(=O)OC(C)C)c(=O)n1C", "recorded-number": 95}
{"query-smiles": "CCOc1nn(C(=O)NS(=O)(=O)c2c(C)csc2C(=O)OC(C)C)c(=O)n1C1CC1", "recorded-number": 95}
{"query-smiles": "CCOC(=O)c1scc(C)c1S(=O)(=O)NC(=O)n1nc(C)n(C)c1=O", "recorded-number": 80}
